Readings of % max activation for the listed binders
assay-target: human MC3R (human, UniProt P41968 1-323)
Sequence (P41968 whole entry): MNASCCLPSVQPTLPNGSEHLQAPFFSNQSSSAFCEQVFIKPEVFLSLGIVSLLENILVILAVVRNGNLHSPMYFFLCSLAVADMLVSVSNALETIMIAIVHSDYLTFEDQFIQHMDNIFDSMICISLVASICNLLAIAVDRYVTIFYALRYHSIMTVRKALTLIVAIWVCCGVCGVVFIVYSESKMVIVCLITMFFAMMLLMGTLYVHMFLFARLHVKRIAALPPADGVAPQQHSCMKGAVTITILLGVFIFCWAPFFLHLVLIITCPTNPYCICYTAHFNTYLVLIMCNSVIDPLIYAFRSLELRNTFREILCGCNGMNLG
experiment: cell-based or functional assay
Positions of bridges follow the written chain, without caps; N, C: chain ends. Non-standard residues stand in square brackets, D forms with d. 1Nal = N[C@@H](Cc1cccc2ccccc12)C(=O)O; Cit = NC(=O)NCCC[C@H](N)C(=O)O; Nle = CCCC[C@H](N)C(=O)O; Aib = CC(C)(N)C(=O)O
Your answer is read as %, so omit the unit and give the number.

Ac-CG[Cit][dF]RFC-NH2 (disulfide 1-7; SMILES CC(=O)N[C@H]1CSSC[C@@H](C(N)=O)NC(=O)[C@H](Cc2ccccc2)NC(=O)[C@H](CCCNC(=N)N)NC(=O)[C@@H](Cc2ccccc2)NC(=O)[C@H](CCCNC(N)=O)NC(=O)CNC1=O) [CTX-1639]
44

stdin: Please indicate % max activation recorded for Ac-CG[Cit][dF]RWC-NH2 (disulfide 1-7; SMILES CC(=O)N[C@H]1CSSC[C@@H](C(N)=O)NC(=O)[C@H](Cc2c[nH]c3ccccc23)NC(=O)[C@H](CCCNC(=N)N)NC(=O)[C@@H](Cc2ccccc2)NC(=O)[C@H](CCCNC(N)=O)NC(=O)CNC1=O) [CTX-1630]
stdout: 35

stdin: Please indicate % max activation recorded for {CH2CO}-[Aib]R[dF]RWC-NH2 (thioether N-6; SMILES CC1(C)NC(=O)CSC[C@@H](C(N)=O)NC(=O)[C@H](Cc2c[nH]c3ccccc23)NC(=O)[C@H](CCCNC(=N)N)NC(=O)[C@@H](Cc2ccccc2)NC(=O)[C@H](CCCNC(=N)N)NC1=O) [CTX-1648]
stdout: 91

stdin: Please indicate % max activation recorded for Ac-R[Nle]CH[1Nal]RWC-NH2 (disulfide 3-8; SMILES CCCC[C@H](NC(=O)[C@H](CCCNC(=N)N)NC(C)=O)C(=O)N[C@H]1CSSC[C@@H](C(N)=O)NC(=O)[C@H](Cc2c[nH]c3ccccc23)NC(=O)[C@H](CCCNC(=N)N)NC(=O)[C@H](Cc2cccc3ccccc23)NC(=O)[C@H](Cc2c[nH]cn2)NC1=O) [CTX-1610]
stdout: 67

stdin: Please indicate % max activation recorded for Ac-R[Nle]CH[dF]RWC-NH2 (disulfide 3-8; SMILES CCCC[C@H](NC(=O)[C@H](CCCNC(=N)N)NC(C)=O)C(=O)N[C@H]1CSSC[C@@H](C(N)=O)NC(=O)[C@H](Cc2c[nH]c3ccccc23)NC(=O)[C@H](CCCNC(=N)N)NC(=O)[C@@H](Cc2ccccc2)NC(=O)[C@H](Cc2c[nH]cn2)NC1=O) [CTX-1227]
stdout: 96

stdin: Please indicate % max activation recorded for Ac-R[Nle]C[Cit][dF]RFC-NH2 (disulfide 3-8; SMILES CCCC[C@H](NC(=O)[C@H](CCCNC(=N)N)NC(C)=O)C(=O)N[C@H]1CSSC[C@@H](C(N)=O)NC(=O)[C@H](Cc2ccccc2)NC(=O)[C@H](CCCNC(=N)N)NC(=O)[C@@H](Cc2ccccc2)NC(=O)[C@H](CCCNC(N)=O)NC1=O) [CTX-1626]
stdout: 51
